These entries and their values trace back to ChEMBL document CHEMBL1130427.

Listed here are molecules together with their documented inhibition.
Target: Serotonin 3 (5-HT3) receptor (Rattus norvegicus) (UniProt P35563+Q9JJ16)
Test: Antagonist activity ([…]) for the Bezold Jarisch reflex evoked by 30 ug/Kg of 5-HT in ethylurethane anesthetized rats (i.v.)
Format: functional
metric-name: inhibition (%)

COc1ccc(Cl)cc1N1CCN(C2CC3CCCC(C2)N3C)C1=O (configuration not stated) : 5
CN1C2CCCC1CC(N1CCN(c3cccc(Cl)c3)C1=O)C2 (stereo in doubt; 38) : 21
CCn1cnc(CN2CCN(c3ccccc3)C2=O)c1C : 21
COc1cccc(N2CCN(Cc3nc[nH]c3C)C2=O)c1 : 92
Cc1[nH]cnc1CN1CCN(c2ccccc2)C1=O : 95
CSc1cccc(N2CCN(C3CN4CCC3CC4)C2=O)c1 (configuration not stated) : 28
COc1ccc(Cl)cc1N1CCN(C2CC3CCC(C2)N3C)C1=O (configuration not stated) : 22
Cc1[nH]cnc1CN1CCN(c2cccc(F)c2)C1=O : 84
Cc1[nH]cnc1CN1CCN(c2cc(Cl)cc(Cl)c2)C1=O : 93
COc1ccc(Cl)cc1N1CCN(C2CN3CCC2CC3)C1=O (configuration not stated) : 11
O=C1N(c2cc(Cl)cc(Cl)c2)CCN1C1CN2CCC1CC2 (configuration not stated) : 76
Cc1[nH]cnc1CN1CCN(c2cccc([N+](=O)[O-])c2)C1=O : 95
